target: Sialic acid-binding Ig-like lectin 7 (Homo sapiens); test: Binding affinity to human IgG1-fused Siglec-7-Fc measured after 2.5 hrs by ELISA
Sequence (Q9Y286 whole entry, the tested form may be a part): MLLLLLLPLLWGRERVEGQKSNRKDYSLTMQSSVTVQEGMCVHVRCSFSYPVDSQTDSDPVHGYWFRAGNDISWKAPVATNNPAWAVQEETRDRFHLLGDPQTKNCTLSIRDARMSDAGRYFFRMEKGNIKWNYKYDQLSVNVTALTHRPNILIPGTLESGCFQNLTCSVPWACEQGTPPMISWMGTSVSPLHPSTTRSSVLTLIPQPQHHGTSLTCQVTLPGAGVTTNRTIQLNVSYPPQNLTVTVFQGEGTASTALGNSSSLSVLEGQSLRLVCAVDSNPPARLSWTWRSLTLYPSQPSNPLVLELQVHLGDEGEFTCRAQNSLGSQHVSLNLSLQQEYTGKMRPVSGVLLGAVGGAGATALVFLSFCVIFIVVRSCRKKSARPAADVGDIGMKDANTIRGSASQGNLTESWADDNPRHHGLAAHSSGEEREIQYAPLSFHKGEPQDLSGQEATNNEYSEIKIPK

{"columns": ["cpd-smiles", "system-under-test", "IC50 / mM"],
 "data": [
  ["CC(=O)N[C@H]1[C@H]([C@H](O)[C@H](O)CO)O[C@@](OC[C@H]2O[C@@H](O[C@H]3[C@H](O)[C@@H](O)[C@H](O)O[C@@H]3CO)[C@H](O)[C@@H](O)[C@H]2O)(C(=O)O)C[C@@H]1O", "Sialic acid-binding Ig-like lectin 7 (Homo sapiens)", 25.6],
  ["CC(=O)N[C@H]1[C@H]([C@H](O)[C@H](O)CNS(C)(=O)=O)O[C@@](OCCCn2cc(-c3ccc(-c4ccccc4)cc3)nn2)(C(=O)[O-])C[C@@H]1O.[Na+]", "Sialic acid-binding Ig-like lectin 7 (Homo sapiens)", 0.26],
  ["CCS(=O)(=O)NC[C@@H](O)[C@@H](O)[C@@H]1O[C@@](OCCCn2cc(-c3ccc(-c4ccccc4)cc3)nn2)(C(=O)O)C[C@H](O)[C@H]1NC(C)=O", "Sialic acid-binding Ig-like lectin 7 (Homo sapiens)", 0.23],
  ["CC(=O)N[C@H]1[C@H]([C@H](O)[C@H](O)CO)O[C@@](O[C@H]2[C@@H](O)[C@@H](CO)O[C@@H](O[C@H]3[C@H](O)[C@@H](O)[C@H](O)O[C@@H]3CO)[C@@H]2O)(C(=O)O)C[C@@H]1O", "Sialic acid-binding Ig-like lectin 7 (Homo sapiens)", 36.9]
]}

###

target: Sialic acid-binding Ig-like lectin 7 (Homo sapiens); test: Binding affinity to human IgG1-fused Siglec-7-Fc assessed as inhibition of Siglec-7-Fc binding to RBC preincubated for 10 mins followed by RBC addition measured after 20 mins by FACS analysis relative to sodium (4S,5R,6R)-5-acetamido-4-hydroxy-2-methoxy-6-((1R,2R)-1,2,3 trihydroxypropyl)tetrahydro-2H-pyran-2-carboxylate
For each record, check the reported fold change (FC): if it is below 1 write True, else write False.

{"columns": ["compound", "category"],
 "data": [
  ["COC1(C(=O)O)C[C@H](O)[C@@H](NC(C)=O)[C@H]([C@H](O)[C@H](O)CNC(=O)Nc2ccccc2)O1 (some centres undefined)", "True"],
  ["CC(=O)N[C@H]1[C@H]([C@H](O)[C@H](O)CN)O[C@@](OCCCn2cc(-c3ccc(-c4ccccc4)cc3)nn2)(C(=O)O)C[C@@H]1O", "True"],
  ["CCS(=O)(=O)NC[C@@H](O)[C@@H](O)[C@@H]1O[C@@](OCCCn2cc(-c3ccc(-c4ccccc4)cc3)nn2)(C(=O)O)C[C@H](O)[C@H]1NC(C)=O", "False"],
  ["COC1(C(=O)O)C[C@H](O)[C@@H](NC(C)=O)[C@H]([C@H](O)[C@H](O)CNC(=O)C(=O)Nc2ccccc2)O1 (some centres undefined)", "False"],
  ["CC(=O)N[C@H]1[C@H]([C@H](O)[C@H](O)CNCc2ccccc2)O[C@@](OCCCn2cc(-c3ccc(-c4ccccc4)cc3)nn2)(C(=O)O)C[C@@H]1O", "True"],
  ["CC(=O)N[C@H]1[C@H]([C@H](O)[C@H](O)CNC(=O)C(N)=O)O[C@@](OCCCn2cc(-c3ccc(-c4ccccc4)cc3)nn2)(C(=O)O)C[C@@H]1O", "False"],
  ["CCCNC[C@@H](O)[C@@H](O)[C@@H]1O[C@@](OCCCn2cc(-c3ccc(-c4ccccc4)cc3)nn2)(C(=O)O)C[C@H](O)[C@H]1NC(C)=O", "True"],
  ["CC(=O)N[C@H]1[C@H]([C@H](O)[C@@H](C)O)O[C@@](OCCCn2cc(-c3ccc(-c4ccccc4)cc3)nn2)(C(=O)O)C[C@@H]1O", "True"],
  ["CC(=O)N[C@H]1[C@H]([C@H](O)[C@H](O)CS)O[C@@](OCCCn2cc(-c3ccc(-c4ccccc4)cc3)nn2)(C(=O)O)C[C@@H]1O", "True"],
  ["CC(=O)NC[C@@H](O)[C@@H](O)[C@@H]1O[C@@](OCCCn2cc(-c3ccc(-c4ccccc4)cc3)nn2)(C(=O)O)C[C@H](O)[C@H]1NC(C)=O", "True"],
  ["CC(=O)N[C@H]1[C@H]([C@H](O)[C@H](O)CNS(=O)(=O)c2cccc3c(N(C)C)cccc23)O[C@@](OCCCn2cc(-c3ccc(-c4ccccc4)cc3)nn2)(C(=O)O)C[C@@H]1O", "True"],
  ["CC(=O)N[C@H]1[C@H]([C@H](O)[C@H](O)CNc2c(O)c(=O)c2=O)O[C@@](OCCCn2cc(-c3ccc(-c4ccccc4)cc3)nn2)(C(=O)O)C[C@@H]1O", "True"],
  ["CC(=O)N[C@H]1[C@H]([C@H](O)[C@H](O)CO)O[C@@](OCCCn2cc(-c3ccc(-c4ccccc4)cc3)nn2)(C(=O)O)C[C@@H]1O", "False"]
]}
